System: K. pneumoniae ATCC 29665
assay.protocol: In vitro antibiotic activity, agar dilution method (Mueller-Hinton agar, NCCLS)
Assay type: cell-based
run.parameters: Klebsiella pneumoniae, ATCC29665; agar dilution, Mueller-Hinton agar; read-out: MIC for K. pneumoniae ATCC 29665
quantity.name: MIC

compound: CC(CCN1CC=C(c2ccc(C#CC#CCCCO)cc2)CC1)(C(=O)NO)S(C)(=O)=O (stereo not shown) [Example 46]
target.desc: K. pneumoniae ATCC 29665
quantity.name: MIC
measured.result: 1 to 8 µg/mL

compound: CC(CCN1CC=C(C#Cc2ccc(Br)cc2)CC1)(C(=O)NO)S(C)(=O)=O (stereo not shown) [Example 53]
target.desc: K. pneumoniae ATCC 29665
quantity.name: MIC
measured.result: 1 to 8 µg/mL

compound: CC(CCN1CC=C(c2ccc(C#CCN3CCCC3)cc2)CC1)(C(=O)NO)S(C)(=O)=O (stereo not shown) [Example 15]
target.desc: K. pneumoniae ATCC 29665
quantity.name: MIC
measured.result: 8 to 16 µg/mL

compound: CC(CCN1CC=C(c2ccc(C#CC#CCO)cc2)CC1)(C(=O)NO)S(C)(=O)=O (stereo not shown) [Example 48]
target.desc: K. pneumoniae ATCC 29665
quantity.name: MIC
measured.result: 1 to 8 µg/mL

compound: CC(CCN1CC=C(c2ccc(C#CCO)cc2)CC1)(C(=O)NO)S(C)(=O)=O (stereo not shown) [Example 22]
target.desc: K. pneumoniae ATCC 29665
quantity.name: MIC
measured.result: > 16 µg/mL

compound: CC(CCN1CC=C(c2ccc(-c3ccccc3)cc2)CC1)(C(=O)NO)S(C)(=O)=O (stereo not shown) [Example 56]
target.desc: K. pneumoniae ATCC 29665
quantity.name: MIC
measured.result: < 1 µg/mL

compound: CC(CCN1CC=C(c2ccc(C#CCCCCl)cc2)CC1)(C(=O)NO)S(C)(=O)=O (stereo not shown) [Example 14]
target.desc: K. pneumoniae ATCC 29665
quantity.name: MIC
measured.result: 1 to 8 µg/mL

compound: CC(CCN1CC=C(c2ccc(C#CC#Cc3ccccc3)cc2)CC1)(C(=O)NO)S(C)(=O)=O (stereo not shown) [Example 51]
target.desc: K. pneumoniae ATCC 29665
quantity.name: MIC
measured.result: > 16 µg/mL

compound: CCS(=O)(=O)c1ccc(-c2ccc(C3=CCN(CCC(C)(C(=O)NO)S(C)(=O)=O)CC3)cc2)cc1.Cl (stereo not shown) [Example 73]
target.desc: K. pneumoniae ATCC 29665
quantity.name: MIC
measured.result: 1 to 8 µg/mL

compound: CC(CCN1CC=C(c2ccc(C#Cc3cccnc3)cc2)CC1)(C(=O)NO)S(C)(=O)=O (stereo not shown) [Example 36]
target.desc: K. pneumoniae ATCC 29665
quantity.name: MIC
measured.result: 1 to 8 µg/mL

compound: CC(CCN1CC=C(c2ccc(C#CCCCN)cc2)CC1)(C(=O)NO)S(C)(=O)=O (stereo not shown) [Example 21]
target.desc: K. pneumoniae ATCC 29665
quantity.name: MIC
measured.result: > 16 µg/mL

compound: Cc1csc(-c2ccc(C3=CCN(CCC(C)(C(=O)NO)S(C)(=O)=O)CC3)cc2)c1.Cl (stereo not shown) [Example 72]
target.desc: K. pneumoniae ATCC 29665
quantity.name: MIC
measured.result: < 1 µg/mL

compound: CC(CCN1CC=C(c2ccc(-c3ccc(Cl)cc3)cc2)CC1)(C(=O)NO)S(C)(=O)=O (stereo not shown) [Example 57]
target.desc: K. pneumoniae ATCC 29665
quantity.name: MIC
measured.result: > 16 µg/mL

compound: CC(CCN1CC=C(c2ccc(C#CCCCOS(C)(=O)=O)cc2)CC1)(C(=O)NO)S(C)(=O)=O (stereo not shown) [Example 19]
target.desc: K. pneumoniae ATCC 29665
quantity.name: MIC
measured.result: 1 to 8 µg/mL

compound: Cn1cnc(C#Cc2ccc(C3=CCN(CCC(C)(C(=O)NO)S(C)(=O)=O)CC3)cc2)c1 (stereo not shown) [Example 38]
target.desc: K. pneumoniae ATCC 29665
quantity.name: MIC
measured.result: 1 to 8 µg/mL

compound: COCC#Cc1ccc(C2=CCN(CCC(C)(C(=O)NO)S(C)(=O)=O)CC2)cn1 (stereo not shown) [Example 75]
target.desc: K. pneumoniae ATCC 29665
quantity.name: MIC
measured.result: > 16 µg/mL

---

Overview of recorded MIC for various compounds
Test system: K. pneumoniae ATCC 29665
assay.protocol: In vitro antibiotic activity, agar dilution method (Mueller-Hinton agar, NCCLS)
Assay type: cell-based
run.parameters: Klebsiella pneumoniae, ATCC29665; agar dilution, Mueller-Hinton agar; read-out: MIC for K. pneumoniae ATCC 29665

compound: CC(CCN1CC=C(c2ccc(C#CCOC(N)=O)cc2)CC1)(C(=O)NO)S(C)(=O)=O (stereo not drawn) [Example 26]
MIC: 8 to 16 µg/mL
//
compound: CN(C)CC#Cc1ccc(C2=CCN(CCC(C)(C(=O)NO)S(C)(=O)=O)CC2)c(F)c1 (stereo not drawn) [Example 33]
MIC: 8 to 16 µg/mL
//
compound: CC(CCN1CC=C(c2ccc(-c3ccc(CO)cc3)cc2)CC1)(C(=O)NO)S(C)(=O)=O (stereo not drawn) [Example 65]
MIC: 8 to 16 µg/mL
//
compound: CC(CN1CC=C(c2ccc(-c3ccccc3)cc2)CC1)(C(=O)NO)S(C)(=O)=O (stereo not drawn) [Example 76]
MIC: > 16 µg/mL
//
compound: CN(C)CC#Cc1ccc(C2=CCN(CCC(C)(C(=O)NO)S(C)(=O)=O)CC2)cc1 (stereo not drawn) [Example 7]
MIC: 1 to 8 µg/mL
//
compound: CC(CCN1CC=C(c2ccc(C#CCOCCCO)cc2)CC1)(C(=O)NO)S(C)(=O)=O (stereo not drawn) [Example 24]
MIC: 1 to 8 µg/mL
